Test system: MOLT-4
ASSAY TEXT: NCI tumour cell line growth inhibition, 48 h
Calls of active or inactive are those of the source. Cut-off read from the data, not from the text of the source: active = GI50 up to about 1.1 µM and inactive = higher.
PROPERTY MEASURED: GI50

CC1C(c2ccccc2)N(C)C(c2ccccc2)C(C)C1(O)c1ccccc1 (stereo unspecified); > 100 µM (inactive)

Please turn your attention to the following entry.
Query: Recorded GI50 for c1ccc2c(c1)CCCC/C2=N/OCC1CO1 (stereo unspecified) , please?
Result: 32.1 µM (inactive)

----------
Tested on: MDA-MB-435
ASSAY TEXT: NCI tumour cell line growth inhibition, 48 h
Active and inactive are the calls of the source. Rule as the data show it: active = GI50 up to about 1.1 µM and inactive = higher.
Tick one outcome: 1 (yes) = active, 0 (no) = inactive

Before answering, review these 5 worked examples.
COC(=O)C1=C(C(=O)OC)C(C(=O)OC)C(C(=O)OC)C(C(=O)OC)(C(=O)OC)C(C(=O)OC)=C1C(=O)OC (centres undefined); 0 (no)
Cc1ccc(S(=O)(=O)Nn2c(S)c(C#N)c(-c3ccc([N+](=O)[O-])cc3)c(C#N)c2=O)cc1; 0 (no)
CCOCCOCCOCc1nc(C#N)c(N)o1; 0 (no)
COc1cc2c(cc1OCCCCCN1C(=O)c3cccc4cccc(c34)C1=O)N=C[C@@H]1CCCN1C2=O; 1 (yes)
OCC(O)COCn1cc(Cn2ncc3c(NCc4ccccc4)ncnc32)nn1 (centres undefined); 0 (no)

Query: Hi, do you know how CCCNC(=O)N(C)C(=O)N1N=C(c2ccccc2)C1c1ccccc1 (centres undefined) came out in this test?
Result: 0 (no)

Query: # lookup: test call for `Nc1ccc2ccc(-c3ccc[nH]3)nc2n1`
Result: 0 (no)

Query: Outcome? `CC1(C)CC(=O)C(=CNC(=S)c2ccccc2)C(=O)C1`
Result: 0 (no)

Query: Dear colleague, could you share the recorded outcome for COc1ccc(N2C(=O)CC(c3c[nH]c4ncccc34)C2=O)cc1 (centres undefined) when you have a moment?
Result: 0 (no)

----------
Tested on: SN12C
ASSAY TEXT: NCI tumour cell line growth inhibition, 48 h
Active and inactive are the calls of the source. Rule as the data show it: active = GI50 up to about 1.1 µM and inactive = higher.
Just give me one of these, please: active, inactive

Known results for compounds:
CO[C@H]1[C@@H](O)[C@@H](C)O[C@@H](O[C@H]2CC[C@@]3(C)[C@H](CC[C@@H]4[C@@H]3CC[C@]3(C)[C@@H](C5=CC(=O)OC5)CC[C@]43O)C2)[C@@H]1O [ODOROSIDE H]; active
Cc1cc(-c2ccc(/N=N/c3ccc4c(S(=O)(=O)O)cc(S(=O)(=O)O)c(N)c4c3O)c(C)c2)ccc1/N=N/c1ccc2c(S(=O)(=O)O)cc(S(=O)(=O)O)c(N)c2c1O [EVANS BLUE FREE ACID]; inactive
CC1CN=C(N(C(=O)Nc2ccccc2)C2CCCCC2)S1 (centres undefined); inactive
Cc1ccc(OCCn2cc(Nc3ccccc3)c(=O)n(CCOc3ccc(C)cc3)c2=O)cc1; inactive
COc1cccc(CSCC(=O)O)c1; inactive

Query: Recorded test call requested for `CCN(CC)C(=O)Cn1c(C)cc2ccccc21`
Result: inactive

Query: Hi team, can someone confirm the assay call for CC(O)c1ccc[n+](Cc2ccccc2)c1 (centres undefined) ?
Result: inactive

Query: Field: outcome | Entry: `COC(=O)/C=C\C(C#N)(C#N)/N=C/c1cccs1`
Result: inactive

Query: Can you look up the reported call for `O=C(O)/C(Cl)=C(Cl)/C=N/NC(=O)c1cc2ccccc2cc1O` for me?
Result: inactive

Query: // outcome(item) with item = O=C1c2ccccc2-n2c1nc1ccccc1c2=O [TRYPTANTHRIN]
Result: inactive

Query: Record request — test call for `C=C1[C@@H]2CCC(C)(C)[C@H]1CCC(=O)[C@@H]2C(=O)OC`
Result: inactive
